target: hMPV B2 F protein (his-tagged, not trypsin treated) (human metapneumovirus); test: ELISA on coated recombinant protein, OD 405 nm
OUTCOME_MEASURE: EC50 (µg/mL)
# value in µg/mL; strip the unit string

MPV483 (antibody, V domains shown) VH: EVQLVQSGAELKKPGSSVKVSCKASGDTFSNYAISWVRQAPGQGLEWMGGIIPIYNTANYAQKFQGRVTLTADESTSTAYMELSSLRSEDTAVYYCARDVRNNWSVLRGARYYYYGMDVWGQGTTVTVSS VL: DIVMTQTPFSLSASVGDRVTVTCRASQDISNSLAWFQQKPGKAPKSLIYAASSLQSGVPTRFSGGGSGTDFTLTISSLQPEDFATFYCLQYDSFPPTFGGGTKVEI : 0.22

[ask] What does the data say about its EC50? Entry: MPV489 (antibody, V domains shown) VH: EVQLLESGGGLVQPGGSLRLSCAASKFTFNNYEMNWLRQAPGKGLEWVSSISSSGDTIHNADSVKGRFIISRDNAKNSLHLQMNGLRAEDTAVYYCARAGSGWAYDAFDIWGLGTMVTVSS VL: LSASVGDRVTITCRASQSISSFLNWYQQKPGKAPKLLMYAASSLPVGVPSRFSGSGSGPEYTLTISNLQPEDFATYYCQQGYSSPPTFGGGTRLEVK
[reply] 4.2
